// growth inhibition lookup, one value per entry
assay: NCI Yeast Anticancer Drug Screen. Data for the cln2 rad14 strain (AID 165);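 further: 0% = growth equal to vehicle treated cultures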; details: S. cerevisiae cln2 rad14 strain, at 50.0 µM, active compounds read high
About 79,000 compounds went through this panel and 15% of them were active in at least one assay; those are over-represented in the sample as a whole.
Number in %, nothing else.

Use the examples below as a reference point.
CC(=O)OCC1OC(n2c(Br)nc3c(N)ncnc32)C2OC(C)(C)OC12 (stereo not drawn) = -2.7
O=C(NCCCCCCNC(=O)C1CCCNC1)C1CCCNC1 (stereo not drawn) = 15.8
CC(C)N(CCn1c2c3ccccc3ccc2c2oc(=O)c3ccccc3c21)C(C)C = 12

Req: Fill in: growth inhibition of CC(C)C1CC(O)C(C)C(C(C)C)C1 (stereo not drawn) is ___
Resp: -28.2

Req: And for CCC/C(Cl)=N/OC(=O)Nc1cc(C(F)(F)F)ccc1OC ?
Resp: 8.5

Req: And for CCOC(=O)CCc1c(C)c2c(O)cc(O)cc2oc1=O ?
Resp: 8.3

Req: And for CC(C)(C)C(=O)OCC1C(=O)OCC1C(=O)N1Cc2cc3ccccc3nc2C1 (stereo not drawn) ?
Resp: -13

Req: And for Brc1ccccc1C=NC12CC3CC(CC(C3)C1)C2 ?
Resp: -55.1

----------
experiment: NCI Yeast Anticancer Drug Screen. Data for the sgs1 mgt1 strain (AID 161);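 further: 0% = growth of cultures given vehicle only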; conditions: S. cerevisiae sgs1 mgt1 strain, at 50.0 µM, active compounds read high
The panel holds about 79,000 compounds, 15% with a hit somewhere; the sample as a whole holds those more often.
// growth inhibition lookup, one value per entry
Number in %, nothing else.

Req: Fill in: growth inhibition of C/C(=N\NC(N)=S)c1cc(C)c(C)cc1C is ___
Resp: 50

----------
// growth inhibition lookup, one value per entry
assay: NCI Yeast Anticancer Drug Screen. Data for the sgs1 mgt1 strain (AID 161);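 further: 0% = growth of cultures given vehicle only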; details: S. cerevisiae sgs1 mgt1 strain, at 50.0 µM, active compounds read high
Compounds without any hit were thinned out: in the full panel of roughly 79,000, 15% have a hit.
Number in %, nothing else.

O=c1[nH][nH]c(=O)c2c1nc(SCc1ccc(Br)cc1)n2Cc1ccccc1 = -7.95
CN(C)C(=O)/N=C1\SC(=Nc2ccccc2)C(=Nc2ccccc2)N1c1ccc([N+](=O)[O-])cc1 = -1.7
BrC1C2CC/C=C\CCC12 (stereo unspecified) = 10.9
O=C(c1ccccc1)C(c1ccccc1)N(CCO)CCO (stereo unspecified) = -2.85
CC1CCC2C1(C)CCC1C2(C)CCC2(C)C3CC(C)(C)CCC3(C)CCC12C (stereo unspecified) = -12.8
CCOC(=O)/C(=C/c1cccc2ccccc12)P(=O)(OCC)OCC = 51.7

Req: Fill in: growth inhibition of O=C1N2CCCSC2=NC1(c1ccccc1)c1ccccc1 is ___
Resp: 1.75

Req: And for COC(=O)/C=C/C(=O)N1CC(C)N(C(=O)/C=C/C(=O)OC)CC1C (stereo unspecified) ?
Resp: -9.2

Req: And for Cc1nc([N+](=O)[O-])cn1CC(Cl)Cn1cc([N+](=O)[O-])nc1C ?
Resp: -18.7

Req: And for O=C(Nc1ccc(Cl)cc1)Nc1ccc(Cl)nn1 ?
Resp: -10.1

Req: And for CN1CCC(O)(/C=C\C2(O)CCN(C)CC2)CC1 ?
Resp: 20.1

----------
experiment: NCI Yeast Anticancer Drug Screen. Data for the cln2 rad14 strain (AID 165);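 further: 0% = growth equal to vehicle treated cultures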; conditions: S. cerevisiae cln2 rad14 strain, at 50.0 µM, active compounds read high
This is part of a sample that, as a whole, favours compounds with a hit. Of some 79,000 tested, about 15% had one in any assay.
ATTRIBUTE_MEASURED: growth inhibition (%)
Number in %, nothing else.

Use the examples below as a reference point.
O=C1CSC(=S)N1.[Cu+2] = -7.65
CC1(C)OC2COC(CNS(C)(=O)=O)C2O1 (stereo unspecified) = 5.1
Clc1ccccc1/C=C1\c2ccc(Br)cc2-c2cccc[n+]21 = 91.4
CCSC(SCC)C(NC(C)=O)C(OC(C)=O)C(OC(C)=O)C(COC(C)=O)OC(C)=O (stereo unspecified) = 8.25
CCCCCNC(=S)NNC(N)=O = -0.7

Req: Fill in: growth inhibition of COc1ccc(/C=N/N2CN(C(C)C(=O)O)C(O)(CCl)N=C2N)cc1OC (stereo unspecified) is ___
Resp: -27.4

Req: And for Cc1cccc(N=N/C(=N\NC(=O)c2cc(Cl)ccc2O)c2ccc(N(CCC#N)CCC#N)cc2C)c1 ?
Resp: 1.8

Req: And for CCOC(=O)NC(NC(=O)OCC)c1ccc(Cl)cc1Cl ?
Resp: 5.9

Req: And for COc1ccc(/C=C2\N=C(c3ccc(N)cc3)OC2=O)cc1OC ?
Resp: 20.1

Req: And for CCCCCCCCN(CCCCCCCC)CC(O)c1ccc2cc(Br)c3ccccc3c2c1 (stereo unspecified) ?
Resp: 47.1

Req: And for CC(=O)OCCC(OC(C)=O)c1ccccn1 (stereo unspecified) ?
Resp: -2.95

----------
experiment: NCI Yeast Anticancer Drug Screen. Data for the rad50 strain (AID 155);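 further: 0% = growth of vehicle-only cultures of the same strain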; conditions: S. cerevisiae rad50 strain growth inhibition; at 50.0 µM; active compounds read high
This is part of a sample that, as a whole, favours compounds with a hit. Of some 79,000 tested, about 15% had one in any assay.
ATTRIBUTE_MEASURED: growth inhibition (%)
Number in %, nothing else.

Use the examples below as a reference point.
COC(=O)Cc1c(-c2[nH]c3ccccc3c2CC(=O)OC)[nH]c2ccccc12 = 13.9
Cc1n[nH]c(=S)[nH]c1=S = -14.3
CC(CO)c1ccccc1 (configuration not stated) = 8.15
CC(=O)NC(Cc1ccccc1)C(=O)NN (configuration not stated) = 7.15
Cc1ccnc(Nc2nnc(Nc3cc(C)ccn3)c3ccccc23)c1 = -20.8
O=C1c2ccccc2-c2nc(-c3ccccc3)cc3c2c1nc1ccccc13 = 79

Req: Fill in: growth inhibition of CC(=O)Nc1cccc2c1C(=O)c1c(c(O)c3ccccc3c1O)C2=O is ___
Resp: 24.9

Req: And for O=S1Nc2ccccc2[C@H]2[C@@H]1[C@H]1O[C@@H]2c2ccccc21 (some centres not stated) ?
Resp: -3.6

----------
assay: NCI Yeast Anticancer Drug Screen. Data for the cln2 rad14 strain (AID 165);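 further: 0% = growth equal to vehicle treated cultures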; settings: S. cerevisiae cln2 rad14 strain, at 50.0 µM, active compounds read high
About 79,000 compounds went through this panel and 15% of them were active in at least one assay; those are over-represented in the sample as a whole.
ATTRIBUTE_MEASURED: growth inhibition (%)
Number in %, nothing else.

C/C=C/C(=O)OCCC(C)OC(=O)/C=C/C (configuration not stated) = 17.4
O=[N+]([O-])CC1CCCCC1 = 14.3
CCN(CC)C(=O)CCC1(C)OCCO1 = 56.4

Req: Fill in: growth inhibition of NC(=O)N=C(NC(N)=O)NC(N)=O is ___
Resp: -18.3

Req: And for COc1cc(NCC2COc3c(ccc(OC)c3OC)C2=O)c([N+](=O)[O-])cc1OC (configuration not stated) ?
Resp: 15.4

Req: And for NCCN1C(=O)c2ccccc2C1(O)c1ccc(Cl)cc1 (configuration not stated) ?
Resp: -4.6

Req: And for O=C(C(=Cn1c(=O)cc[nH]c1=S)C(=O)c1ccccc1)c1ccccc1 ?
Resp: 2.95

Req: And for CCOC(=O)CC(=O)c1sc(SC)c(C#N)c1N ?
Resp: -2

----------
assay: NCI Yeast Anticancer Drug Screen. Data for the bub3 strain (AID 167); settings: S. cerevisiae bub3 mutant strain, at 50.0 µM
The panel holds about 79,000 compounds, 15% with a hit somewhere; the sample as a whole holds those more often. Active and inactive are the calls of the source. Cut-off read from the data, not from the text of the source: active = growth inhibition above about 70%; inactive = the rest.
One label from this list, please: y for active, n for inactive

CCC(=O)C(CC)Cc1ccc(OC)c(OC)c1 (stereo not drawn) = n
CC(C)/C(=N\N=C(\c1ccccc1)C(C)C)c1ccccc1 = n
O=C(O)C(O)(O)C(=O)O = n
O=c1[nH]c2ccccc2c(N=Cc2ccccc2)c1-c1ccccc1 = n
CCCCCCCCCCCCCCCC[N+](C)(C)CC#CCCl = y
O=C(/C=C(\Br)c1ccccc1)c1ccccc1 = y

Req: State the result this test recorded for CC(CC(C(=O)N(C)C)(c1ccccc1)c1ccccc1)[N+](C)(C)[O-] (stereo not drawn) .
Resp: n

Req: And for CCCCCCCCCCCCCCCC(=O)O ?
Resp: n

Req: And for CCCCCCC#CC(=O)O ?
Resp: n

Req: And for CC(=O)Nc1cnc2c(nc3cc(C)ccn32)c1C ?
Resp: n

Req: And for CC(Cc1ccccc1)NC(=O)C1CC2CCCCN2C1C (stereo not drawn) ?
Resp: n

Req: And for CCCS(CCC)=NS(=O)(=O)c1ccc(C)cc1 ?
Resp: n
